Compiled from multiple publications: pIC50 readings for UniProt:P42336.
pIC50: −log10 of the molar value.

CN1CCN(c2cc(-c3cccc(Oc4cc(=O)[nH]c5ccccc45)c3)ccn2)CC1 : < 5.00
C[C@H](Nc1ncnc2scnc12)c1cc2cccc(-c3cn[nH]c3)c2c(=O)n1-c1ccccc1 : 5.00 to 6.00
Nc1ncc(-c2ccc3ncc4nnc(CN5CCCC5)n4c3c2)cc1C(F)(F)F : > 7.00
CC(O)C(=O)N1CCN(Cc2ccc3c(N4CCOCC4)nc(-c4cnc(N)nc4)nc3c2)CC1 (stereo not drawn) : 5.00 to 6.70
Nc1nc2cc(-c3ccc4ncc(-c5cccnc5)nc4n3)ccc2o1 : > 7.00

Query the reported pIC50 for UniProt:P42336; item: "O=c1cc(Oc2cccc(-c3ccc(NCCN4CCOCC4)nc3)c2)c2ccccc2[nH]1"
5.17

Query the reported pIC50 for UniProt:P42336; item: "Nc1nc2cc(-c3ccc4ncc(N5CCC(O)CC5)nc4c3)ccc2o1"
> 7.00

Query the reported pIC50 for UniProt:P42336; item: C[C@H](Nc1ncnc2scnc12)c1cc2cccc(Cl)c2c(C(=O)NC2CCC(O)CC2)n1 (stereo partly drawn)
> 5.00

Query the reported pIC50 for UniProt:P42336; item: "COc1ncc(-c2cccc3nc([C@H](C)Nc4nc(N)nc5cccnc45)n(-c4ccccc4)c(=O)c23)cn1"
5.00 to 6.00

Query the reported pIC50 for UniProt:P42336; item: "CC(C)(C#N)C(=O)Nc1cccc(-c2cnc3c(N4CCOCC4)nc(-c4cnc(N)nc4)nc3c2)c1"
> 7.30

Query the reported pIC50 for UniProt:P42336; item: "Nc1nc2cc(-c3ccc4ncc(N5CC6CCC(C5)O6)cc4n3)ccc2o1"
> 7.00

Query the reported pIC50 for UniProt:P42336; item: "CCN(CC)c1ncc2c(n1)-c1sc(NC(=O)N3CC[C@@H]4C[C@@]43C(N)=O)nc1CC2"
8.26

Query the reported pIC50 for UniProt:P42336; item: "CNC(=O)C1CN(c2cnc3ccc(-c4ccc5oc(N)nc5c4)cc3n2)C1"
> 7.00

Query the reported pIC50 for UniProt:P42336; item: "CC(C)(C#N)c1ccc(-n2cnc3cnc4ccc(-c5cnc(N)c(C(F)(F)F)c5)nc4c32)cc1"
> 7.00

Query the reported pIC50 for UniProt:P42336; item: "O=c1cc(Oc2cccc(NC3CCN(Cc4ccccn4)CC3)c2)c2ccccc2[nH]1"
< 5.00

Query the reported pIC50 for UniProt:P42336; item: "NCC(=O)N1CCN(c2cnc3ccc(-c4ccc5oc(N)nc5c4)cc3n2)CC1"
> 7.00

Query the reported pIC50 for UniProt:P42336; item: "COCCN(CCOC)C(=O)C1CCN(c2ccnc3c2c(/C=C2\Oc4ccc(NC(=O)Nc5cccnc5)cc4C2=O)cn3C)CC1"
5.39

Query the reported pIC50 for UniProt:P42336; item: "Nc1nc(Cl)c(CNc2cccc(Oc3cc(=O)[nH]c4ccccc34)c2)c(Cl)n1"
< 5.00

Query the reported pIC50 for UniProt:P42336; item: "Cn1cc(/C=C2\Oc3cccc(O)c3C2=O)c2c(N3CCC(C(N)=O)CC3)ccnc21"
7.54

Query the reported pIC50 for UniProt:P42336; item: "COc1cnccc1-c1cccc2cc([C@H](C)Nc3ncnc4scnc34)n(-c3ccccc3)c(=O)c12"
5.00 to 6.00

Query the reported pIC50 for UniProt:P42336; item: "Nc1ncc(-c2ccc3ncc4nnn(-c5cccc(Cl)c5)c4c3c2)cn1"
> 7.00

Query the reported pIC50 for UniProt:P42336; item: Cc1nc2cc(-c3ccc4c(c3)CN(C(=O)N3C[C@H]5CC(C)C[C@H]5C3)CCO4)ccc2[nH]1 (stereo partly drawn)
6.30 to 6.70

Query the reported pIC50 for UniProt:P42336; item: "C[C@H](NC(=O)c1c(N)nn2cccnc12)c1cc2cccc(Cl)c2c(=O)n1CCN(C)S(C)(=O)=O"
6.00 to 7.00

Query the reported pIC50 for UniProt:P42336; item: "C[C@H](NC(=O)c1c(N)nn2cccnc12)c1cc2cccc(C3CC3)c2c(=O)n1-c1ccccc1"
< 5.00
